- Test system: full length human vWF (SEQ ID NO 7)
- Protocol Details: dot blot KD determination and extent of binding, full length human vWF;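 note: dot blot binding of aptamers to full length human vWF across a protein titration, incubated 30 minutes at room temperature in 1x DPBS with BSA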
- Assay Context: Phase 1 modification; extent of aptamer binding at 100 nM full length human vWF
Oligonucleotides are written 5' to 3', each unit as a sugar letter and its base; * is a phosphorothioate linkage, no mark a phosphodiester; rarer units and linkages stand in square brackets, end groups in braces. Plain capitals give the bases only. [invdT] = inverted (3'-3') thymidine; d = 2'-deoxy (DNA); m = 2'-O-methyl
Criterion: % binding @ 100 nM vWF strictly less than 40%. Met: rule met. Not met: rule not met.

# Substance, Tested Target, Discrete Label
data = [
    ("ARC1200: ARC1172 with one residue replaced by 2'-O methyl residue (DNA dGdGdCdGdTdGmCdAdGdTdGdCdCdTdTdCdGdGdCdCdGdTdGdCdGdGdTdGdCdCdTdCdCdGdTdCdAdCdGdCdC[invdT]; aptamer)", "full length human vWF (SEQ ID NO 7)", "rule met"),
    ("ARC1239: ARC1172 with composite 2'-O methyl replacements in the stem regions (dGdGdCdGdTdGdCdAdGdTdGmCmCdTdTdCdGdGmCdCdGdTdGdCdGdGdTdGdCdCdTdCdCdGdTdCdAdCdGdCdC[invdT]; aptamer)", "full length human vWF (SEQ ID NO 7)", "rule met"),
    ("ARC1211: ARC1172 with one residue replaced by 2'-O methyl residue (DNA dGdGdCdGdTdGdCdAdGdTdGdCdCdTdTdCdGmGdCdCdGdTdGdCdGdGdTdGdCdCdTdCdCdGdTdCdAdCdGdCdC[invdT]; aptamer)", "full length human vWF (SEQ ID NO 7)", "rule not met"),
    ("ARC1224: ARC1172 with one residue replaced by 2'-O methyl residue (dGdGdCdGdTdGdCdAdGdTdGdCdCdTdTdCdGdGdCdCdGdTdGdCdGdGdTdGdCdCmUdCdCdGdTdCdAdCdGdCdC[invdT]; aptamer)", "full length human vWF (SEQ ID NO 7)", "rule not met"),
    ("ARC1196: ARC1172 with one residue replaced by 2'-O methyl residue (DNA dGdGmCdGdTdGdCdAdGdTdGdCdCdTdTdCdGdGdCdCdGdTdGdCdGdGdTdGdCdCdTdCdCdGdTdCdAdCdGdCdC[invdT]; aptamer)", "full length human vWF (SEQ ID NO 7)", "rule not met"),
    ("ARC1237: ARC1172 with composite 2'-O methyl replacements in the stem regions (mGmGmCmGmUmGdCdAdGdTdGdCdCdTdTdCdGdGdCdCdGdTdGdCdGdGdTdGdCdCdTdCdCdGdTmCmAmCmGmCmC[invdT]; aptamer)", "full length human vWF (SEQ ID NO 7)", "rule met"),
    ("ARC1215: ARC1172 with one residue replaced by 2'-O methyl residue (DNA dGdGdCdGdTdGdCdAdGdTdGdCdCdTdTdCdGdGdCdCdGmUdGdCdGdGdTdGdCdCdTdCdCdGdTdCdAdCdGdCdC[invdT]; aptamer)", "full length human vWF (SEQ ID NO 7)", "rule met"),
]

All values here come from patent US7998940B2.
